Target: Cytochrome P450 3A4 (Homo sapiens, UniProt P08684)
Sequence (P08684 whole entry): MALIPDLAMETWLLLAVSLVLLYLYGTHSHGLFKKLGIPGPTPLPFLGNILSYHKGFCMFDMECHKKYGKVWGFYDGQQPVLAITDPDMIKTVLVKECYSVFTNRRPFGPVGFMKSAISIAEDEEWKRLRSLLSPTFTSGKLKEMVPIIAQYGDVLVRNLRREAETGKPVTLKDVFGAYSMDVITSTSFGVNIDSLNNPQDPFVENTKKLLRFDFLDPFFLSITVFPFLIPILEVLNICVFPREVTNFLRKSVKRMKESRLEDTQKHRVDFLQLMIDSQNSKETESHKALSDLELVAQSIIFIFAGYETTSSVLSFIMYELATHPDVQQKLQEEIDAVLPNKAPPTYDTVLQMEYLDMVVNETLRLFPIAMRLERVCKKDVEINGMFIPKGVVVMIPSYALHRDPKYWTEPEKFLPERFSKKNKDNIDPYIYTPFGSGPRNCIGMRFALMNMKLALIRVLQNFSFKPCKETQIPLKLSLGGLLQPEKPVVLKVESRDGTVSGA
Test: Inhibition of CYP3A4 (unknown origin) incubated for 10 mins in presence of NADPH by LC-MS/MS analysis
Format: ADME
pIC50: −log10 of the molar value.
Property Name: pIC50

In [3]: df
Out[3]:
                           molecular_string  property_name  measured_value
0  CC(=O)Nc1cc(-c2ccc(OC[C@@H](N)CC(C)C)c(C#N)c2)ccn1          pIC50            5.59

I: COC(=O)Nc1cc(-c2ccc(OC[C@@](C)(N)CC(C)C)c(C(F)(F)F)c2)ccn1
II: COC(=O)Nc1cc(-c2cc(C)c(OC[C@@](C)(N)CC(C)C)cn2)ccn1
**Q:** Select one: I or II . Criterion: greater recorded pIC50. Let me know the label of the one you choose.
**A:** I

Origin of the recorded values: ChEMBL document CHEMBL5154787
